Each recorded value in this set is attributed to ChEMBL document CHEMBL4049407.

- targetSystem: Proprotein convertase subtilisin/kexin type 6 (Homo sapiens)
- assay: Inhibition of recombinant human PACE4 expressed in drosophila S2 cells using pyrGlu-Arg-Thr-Lys-Arg-7-amido-4-methylcoumarin as substrate after 60 mins by spectrofluorometry method
Peptide text beside a SMILES is read from it. * marks the point of attachment. NH(4-amidinobenzyl) = N=C(N)c1ccc(CN*)cc1
assayEndpoint: Ki (nM)
Give bare numbers, in nM.

compound	readoutUnits	Ki
CC(=O)N[C@@H](CC(C)C)C(=O)N[C@@H](CC(C)C)C(=O)N[C@@H](Cc1ccccc1)C(=O)N[C@@H](CC(C)C)C(=O)N[C@@H](CCCNC(=N)N)C(=O)N[C@H](C(=O)N[C@@H](CCCCN)C(=O)NCc1ccc(C(=N)N)cc1)C(C)C (Ac-LLFLRVK-{NH(4-amidinobenzyl)})	nM	16
CC(=O)N[C@@H](CCCNC(=N)N)C(=O)N[C@@H](CC(C)C)C(=O)N[C@@H](CC(C)C)C(=O)N[C@@H](CC(C)C)C(=O)N[C@@H](CCCNC(=N)N)C(=O)N[C@H](C(=O)N[C@@H](CCCCN)C(=O)NCc1ccc(C(=N)N)cc1)C(C)C (Ac-RLLLRVK-{NH(4-amidinobenzyl)})	nM	0.6
CC(=O)NCC(=O)N[C@@H](CC(C)C)C(=O)N[C@@H](CC(C)C)C(=O)N[C@@H](CC(C)C)C(=O)N[C@@H](CCCNC(=N)N)C(=O)N[C@H](C(=O)N[C@@H](CCCCN)C(=O)NCc1ccc(C(=N)N)cc1)C(C)C (Ac-GLLLRVK-{NH(4-amidinobenzyl)})	nM	3
CC(=O)N[C@@H](CC(C)C)C(=O)N[C@@H](Cc1ccccc1)C(=O)N[C@@H](CC(C)C)C(=O)N[C@@H](CC(C)C)C(=O)N[C@@H](CCCNC(=N)N)C(=O)N[C@H](C(=O)N[C@@H](CCCCN)C(=O)NCc1ccc(C(=N)N)cc1)C(C)C (Ac-LFLLRVK-{NH(4-amidinobenzyl)})	nM	8
CC(=O)N[C@@H](CC(C)C)C(=O)N[C@@H](CCC(N)=O)C(=O)N[C@@H](CC(C)C)C(=O)N[C@@H](CC(C)C)C(=O)N[C@@H](CCCNC(=N)N)C(=O)N[C@H](C(=O)N[C@@H](CCCCN)C(=O)NCc1ccc(C(=N)N)cc1)C(C)C (Ac-LQLLRVK-{NH(4-amidinobenzyl)})	nM	3

Respectfully, I request Ki for each entry included below.
1. CC(=O)N[C@@H](CC(C)C)C(=O)N[C@@H](CO)C(=O)N[C@@H](CC(C)C)C(=O)N[C@@H](CC(C)C)C(=O)N[C@@H](CCCNC(=N)N)C(=O)N[C@H](C(=O)N[C@@H](CCCCN)C(=O)NCc1ccc(C(=N)N)cc1)C(C)C (Ac-LSLLRVK-{NH(4-amidinobenzyl)})
2. CC(=O)N[C@@H](CC(C)C)C(=O)N[C@@H](Cc1ccc(O)cc1)C(=O)N[C@@H](CC(C)C)C(=O)N[C@@H](CC(C)C)C(=O)N[C@@H](CCCNC(=N)N)C(=O)N[C@H](C(=O)N[C@@H](CCCCN)C(=O)NCc1ccc(C(=N)N)cc1)C(C)C (Ac-LYLLRVK-{NH(4-amidinobenzyl)})
3. CC[C@H](C)[C@H](NC(C)=O)C(=O)N[C@@H](CC(C)C)C(=O)N[C@@H](CC(C)C)C(=O)N[C@@H](CC(C)C)C(=O)N[C@@H](CCCNC(=N)N)C(=O)N[C@H](C(=O)N[C@@H](CCCCN)C(=O)NCc1ccc(C(=N)N)cc1)C(C)C (Ac-ILLLRVK-{NH(4-amidinobenzyl)})

1. 2
2. 4
3. 5

Respectfully, I request Ki for each entry included below.
1. CC(=O)N[C@@H](CC(N)=O)C(=O)N[C@@H](CC(C)C)C(=O)N[C@@H](CC(C)C)C(=O)N[C@@H](CC(C)C)C(=O)N[C@@H](CCCNC(=N)N)C(=O)N[C@H](C(=O)N[C@@H](CCCCN)C(=O)NCc1ccc(C(=N)N)cc1)C(C)C (Ac-NLLLRVK-{NH(4-amidinobenzyl)})
2. CSCC[C@H](NC(=O)[C@H](CC(C)C)NC(=O)[C@H](CC(C)C)NC(=O)[C@H](CC(C)C)NC(C)=O)C(=O)N[C@@H](CCCNC(=N)N)C(=O)N[C@H](C(=O)N[C@@H](CCCCN)C(=O)NCc1ccc(C(=N)N)cc1)C(C)C (Ac-LLLMRVK-{NH(4-amidinobenzyl)})
3. CC(=O)N[C@@H](CC(C)C)C(=O)N[C@@H](Cc1c[nH]c2ccccc12)C(=O)N[C@@H](CC(C)C)C(=O)N[C@@H](CC(C)C)C(=O)N[C@@H](CCCNC(=N)N)C(=O)N[C@H](C(=O)N[C@@H](CCCCN)C(=O)NCc1ccc(C(=N)N)cc1)C(C)C (Ac-LWLLRVK-{NH(4-amidinobenzyl)})

1. 6
2. 3.7
3. 8

Respectfully, I request Ki for each entry included below.
1. CC(=O)N[C@@H](CC(C)C)C(=O)N[C@@H](CC(C)C)C(=O)N[C@@H](Cc1cnc[nH]1)C(=O)N[C@@H](CC(C)C)C(=O)N[C@@H](CCCNC(=N)N)C(=O)N[C@H](C(=O)N[C@@H](CCCCN)C(=O)NCc1ccc(C(=N)N)cc1)C(C)C (Ac-LLHLRVK-{NH(4-amidinobenzyl)})
2. CC(=O)N[C@@H](CC(C)C)C(=O)N[C@@H](CC(C)C)C(=O)N[C@@H](CC(C)C)C(=O)N[C@@H](CC(N)=O)C(=O)N[C@@H](CCCNC(=N)N)C(=O)N[C@H](C(=O)N[C@@H](CCCCN)C(=O)NCc1ccc(C(=N)N)cc1)C(C)C (Ac-LLLNRVK-{NH(4-amidinobenzyl)})
3. CC(=O)N[C@@H](CC(C)C)C(=O)N[C@@H](CC(C)C)C(=O)N[C@@H](C)C(=O)N[C@@H](CC(C)C)C(=O)N[C@@H](CCCNC(=N)N)C(=O)N[C@H](C(=O)N[C@@H](CCCCN)C(=O)NCc1ccc(C(=N)N)cc1)C(C)C (Ac-LLALRVK-{NH(4-amidinobenzyl)})

1.8
1.7
30

====

- targetSystem: Proprotein convertase subtilisin/kexin type 6 (Homo sapiens, UniProt P29122)
- Sequence (P29122 whole entry): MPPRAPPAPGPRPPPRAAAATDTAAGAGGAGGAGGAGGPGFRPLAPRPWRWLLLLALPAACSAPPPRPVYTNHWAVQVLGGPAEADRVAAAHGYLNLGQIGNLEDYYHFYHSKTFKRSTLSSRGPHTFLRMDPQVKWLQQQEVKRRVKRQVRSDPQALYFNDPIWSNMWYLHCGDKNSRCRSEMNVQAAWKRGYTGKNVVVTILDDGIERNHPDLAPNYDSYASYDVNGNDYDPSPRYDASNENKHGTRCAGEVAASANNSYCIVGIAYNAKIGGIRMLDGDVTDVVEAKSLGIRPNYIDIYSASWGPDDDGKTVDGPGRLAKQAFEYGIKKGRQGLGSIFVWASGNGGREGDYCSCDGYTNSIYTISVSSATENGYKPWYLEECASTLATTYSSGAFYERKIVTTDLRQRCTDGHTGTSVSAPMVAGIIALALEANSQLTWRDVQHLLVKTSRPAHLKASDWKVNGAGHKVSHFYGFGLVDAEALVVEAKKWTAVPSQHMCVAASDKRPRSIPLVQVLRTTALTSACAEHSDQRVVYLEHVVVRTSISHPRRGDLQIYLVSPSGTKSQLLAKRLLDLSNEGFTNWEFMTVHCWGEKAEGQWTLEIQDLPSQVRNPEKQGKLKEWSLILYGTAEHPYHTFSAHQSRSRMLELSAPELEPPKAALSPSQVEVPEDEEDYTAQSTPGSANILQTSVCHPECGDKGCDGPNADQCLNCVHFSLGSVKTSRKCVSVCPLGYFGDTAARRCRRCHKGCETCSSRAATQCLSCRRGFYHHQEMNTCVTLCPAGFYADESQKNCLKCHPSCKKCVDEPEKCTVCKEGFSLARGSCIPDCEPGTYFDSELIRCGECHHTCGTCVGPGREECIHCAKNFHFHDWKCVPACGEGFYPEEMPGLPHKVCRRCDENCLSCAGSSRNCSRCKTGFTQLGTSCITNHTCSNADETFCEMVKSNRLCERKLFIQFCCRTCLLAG
- assay: Inhibition of recombinant human PACE4 expressed in drosophila S2 cells using pyrGlu-Arg-Thr-Lys-Arg-7-amido-4-methylcoumarin as substrate after 60 mins by spectrofluorometry method
Peptide text beside a SMILES is read from it. * marks the point of attachment. NH(4-amidinobenzyl) = N=C(N)c1ccc(CN*)cc1
Okay, here is how we bin by Ki: low-valued (below 3 nM), mid-valued (3 nM to below 20 nM), high-valued (20 nM or more)

Recorded results for 10 compounds are shown here.
compound	discreteLabel
CC(=O)N[C@@H](CC(C)C)C(=O)N[C@@H](CC(C)C)C(=O)N[C@@H](CC(N)=O)C(=O)N[C@@H](CC(C)C)C(=O)N[C@@H](CCCNC(=N)N)C(=O)N[C@H](C(=O)N[C@@H](CCCCN)C(=O)NCc1ccc(C(=N)N)cc1)C(C)C (Ac-LLNLRVK-{NH(4-amidinobenzyl)})	mid-valued
CC(=O)N[C@@H](CC(C)C)C(=O)N[C@@H](CC(C)C)C(=O)N[C@@H](CC(C)C)C(=O)N[C@@H](CC(=O)O)C(=O)N[C@@H](CCCNC(=N)N)C(=O)N[C@H](C(=O)N[C@@H](CCCCN)C(=O)NCc1ccc(C(=N)N)cc1)C(C)C (Ac-LLLDRVK-{NH(4-amidinobenzyl)})	high-valued
CC(=O)N[C@@H](CC(C)C)C(=O)N[C@@H](CCCNC(=N)N)C(=O)N[C@@H](CC(C)C)C(=O)N[C@@H](CC(C)C)C(=O)N[C@@H](CCCNC(=N)N)C(=O)N[C@H](C(=O)N[C@@H](CCCCN)C(=O)NCc1ccc(C(=N)N)cc1)C(C)C (Ac-LRLLRVK-{NH(4-amidinobenzyl)})	low-valued
CC(=O)N[C@@H](CC(C)C)C(=O)N[C@@H](CC(C)C)C(=O)N[C@@H](CCCNC(=N)N)C(=O)N[C@@H](CC(C)C)C(=O)N[C@@H](CCCNC(=N)N)C(=O)N[C@H](C(=O)N[C@@H](CCCCN)C(=O)NCc1ccc(C(=N)N)cc1)C(C)C (Ac-LLRLRVK-{NH(4-amidinobenzyl)})	low-valued
CC(=O)N[C@@H](CC(C)C)C(=O)N[C@@H](CC(C)C)C(=O)N[C@@H](Cc1c[nH]c2ccccc12)C(=O)N[C@@H](CC(C)C)C(=O)N[C@@H](CCCNC(=N)N)C(=O)N[C@H](C(=O)N[C@@H](CCCCN)C(=O)NCc1ccc(C(=N)N)cc1)C(C)C (Ac-LLWLRVK-{NH(4-amidinobenzyl)})	high-valued
CC(=O)N[C@@H](CC(C)C)C(=O)N[C@@H](CC(C)C)C(=O)N[C@@H](CC(C)C)C(=O)N[C@@H](CCCNC(=N)N)C(=O)N[C@@H](CCCNC(=N)N)C(=O)N[C@H](C(=O)N[C@@H](CCCCN)C(=O)NCc1ccc(C(=N)N)cc1)C(C)C (Ac-LLLRRVK-{NH(4-amidinobenzyl)})	low-valued
CSCC[C@H](NC(C)=O)C(=O)N[C@@H](CC(C)C)C(=O)N[C@@H](CC(C)C)C(=O)N[C@@H](CC(C)C)C(=O)N[C@@H](CCCNC(=N)N)C(=O)N[C@H](C(=O)N[C@@H](CCCCN)C(=O)NCc1ccc(C(=N)N)cc1)C(C)C (Ac-MLLLRVK-{NH(4-amidinobenzyl)})	mid-valued
CC[C@H](C)[C@H](NC(=O)[C@H](CC(C)C)NC(=O)[C@H](CC(C)C)NC(C)=O)C(=O)N[C@H](C(=O)N[C@@H](CCCNC(=N)N)C(=O)N[C@H](C(=O)N[C@@H](CCCCN)C(=O)NCc1ccc(C(=N)N)cc1)C(C)C)[C@@H](C)CC	mid-valued
CC(=O)N[C@@H](Cc1ccccc1)C(=O)N[C@@H](CC(C)C)C(=O)N[C@@H](CC(C)C)C(=O)N[C@@H](CC(C)C)C(=O)N[C@@H](CCCNC(=N)N)C(=O)N[C@H](C(=O)N[C@@H](CCCCN)C(=O)NCc1ccc(C(=N)N)cc1)C(C)C (Ac-FLLLRVK-{NH(4-amidinobenzyl)})	mid-valued
CC(=O)N[C@@H](CC(C)C)C(=O)N[C@@H](CC(C)C)C(=O)N[C@@H](CCC(=O)O)C(=O)N[C@@H](CC(C)C)C(=O)N[C@@H](CCCNC(=N)N)C(=O)N[C@H](C(=O)N[C@@H](CCCCN)C(=O)NCc1ccc(C(=N)N)cc1)C(C)C (Ac-LLELRVK-{NH(4-amidinobenzyl)})	high-valued

State the class of the compound shown: CC[C@H](C)[C@H](NC(=O)[C@H](CC(C)C)NC(C)=O)C(=O)N[C@@H](CC(C)C)C(=O)N[C@@H](CC(C)C)C(=O)N[C@@H](CCCNC(=N)N)C(=O)N[C@H](C(=O)N[C@@H](CCCCN)C(=O)NCc1ccc(C(=N)N)cc1)C(C)C (Ac-LILLRVK-{NH(4-amidinobenzyl)})
low-valued

# iterate: CC(=O)N[C@@H](CC(C)C)C(=O)N[C@@H](CCC(=O)O)C(=O)N[C@@H](CC(C)C)C(=O)N[C@@H](CC(C)C)C(=O)N[C@@H](CCCNC(=N)N)C(=O)N[C@H](C(=O)N[C@@H](CCCCN)C(=O)NCc1ccc(C(=N)N)cc1)C(C)C (Ac-LELLRVK-{NH(4-amidinobenzyl)})
high-valued

# iterate: CC(=O)N[C@@H](CC(C)C)C(=O)N[C@@H](CC(C)C)C(=O)N[C@@H](CC(C)C)C(=O)N[C@@H](C)C(=O)N[C@@H](CCCNC(=N)N)C(=O)N[C@H](C(=O)N[C@@H](CCCCN)C(=O)NCc1ccc(C(=N)N)cc1)C(C)C (Ac-LLLARVK-{NH(4-amidinobenzyl)})
mid-valued
